- Test system: JEG-3
- experiment.summary: Primary qHTS to identify gynecologic anti-cancer compounds using libraries of approved drugs and bioactive compounds (AID 1345084); note: % is set by controls: 0 for no effect and ±100 for the full control effect; nearly all actives have a fitted effect of over 55% in size
- condition.parameters: Gynecologic cancer cell panel viability, ATPlite luminescence, 48 h; series mostly up to 57.5 µM
Records with an inconclusive call do not appear. Calls of active or inactive are those of the source. Calls come from the whole dose curve; as a rule, active = well fitted cell-killing curve with a large enough effect; inconclusive = small, poorly fitted or top-dose-only effect, or effect the other way; inactive = flat fitted curve, though single readings scatter.
measured.attribute: activity change, negative = cytotoxicity

C[C@@H]1C[C@H]2OC(=O)[C@@]3(C)CCC[C@](C)(C23)[C@@]1(O)CCC1=CC(=O)OC1O (stereo partly specified)
inactive
CC(CC12CCCN1C(=O)C1CCCN1C2=O)OC(N)=O (stereo unspecified)
inactive
CC1(C)CC[C@]2(C(=O)O[C@@H]3O[C@H](CO)[C@@H](O)[C@H](O)[C@H]3O)CC[C@]3(C)C(=CCC4[C@@]5(C)CC[C@H](OC6OC(C(=O)O)C(OC7OC(CO)C(O)C(O)C7O)C(O)C6O)C(C)(C)C5CC[C@]43C)C2C1 (stereo partly specified)
9.79% [at 11.6 µM] (inactive)
Cc1occc(=O)c1O[C@@H]1O[C@H](CO)[C@@H](O)[C@H](O)[C@H]1O
inactive
C=C1CC[C@]2(C(=O)O[C@@H]3O[C@H](CO)[C@@H](O)[C@H](O)[C@H]3O)CC[C@]3(C)C(=CCC4[C@@]5(C)C[C@H](O)[C@@H](O[C@@H]6O[C@H](C(=O)O)[C@@H](O)[C@H](O)[C@H]6O)[C@](C)(C=O)C5CC[C@]43C)C2C1 (stereo partly specified)
-0.564% [at 11.6 µM] (inactive)
O=C(O[C@H]1[C@H](Oc2ccc(O)cc2CO)O[C@H](CO)[C@@H](O)[C@@H]1O)c1ccccc1
inactive

====

- Tested on: C33A
- experiment.summary: Primary qHTS to identify gynecologic anti-cancer compounds using libraries of approved drugs and bioactive compounds (AID 1345084); note: % is set by controls: 0 for no effect and ±100 for the full control effect; nearly all actives have a fitted effect of over 55% in size
- condition.parameters: Gynecologic cancer cell panel viability, ATPlite luminescence, 48 h; series mostly up to 57.5 µM
- Description: National Center for Advancing Translational Sciences [NCATS] Assay Overview: Chemotherapeutic drug responses vary from cancer to cancer and from patient to patient. […] ATPlite is a luminescence based assay reliant on the conversion of a luciferase substrate to light in the presence of ATP. As a cytotoxic compound will suppress growth and decrease the number of cells, the concentration of ATP will decrease, and less light signal will be detected in the well. […]
Results filed as inconclusive are left out. Active and inactive are the calls of the source. Calls come from the whole dose curve; as a rule, active = well fitted cell-killing curve with a large enough effect; inconclusive = small, poorly fitted or top-dose-only effect, or effect the other way; inactive = flat fitted curve, though single readings scatter.
measured.attribute: activity change, negative = cytotoxicity

CC(C)Oc1ccc(-c2nc(-c3cccc4c3CCC4NCCC(=O)O)no2)cc1C#N (configuration not stated)
inactive
CC1CC2(O)OC(=O)C3=C2C(CCC3)[C@@]12C[C@@H](c1ccoc1)OC2=O (some centres not stated)
inactive
Cc1c(NC(=O)N2CCOCC2)ccc2c1c1ccccc1n2C(C)C
inactive
CC1(C)C[C@H]2C=C(C=O)[C@]3(C(=O)O)C[C@]3(C)[C@H]2C1
inactive
C/C=C/C=C/C=C/C(=O)OC1C=C2C(O)OC(=O)[C@]2(O)[C@@]2(C)CCCC(C)(C)[C@H]12 (some centres not stated)
inactive
CC(C)=CCC[C@](C)(O[C@@H]1O[C@H](CO)[C@@H](O)[C@H](O)[C@H]1O)[C@H]1CC[C@]2(C)[C@@H]1[C@H](O)CC1[C@@]3(C)CC[C@H](O)C(C)(C)C3[C@@H](O[C@@H]3O[C@H](CO)[C@@H](O)[C@H](O)[C@H]3O[C@@H]3O[C@@H](C)[C@H](O)[C@@H](O)[C@H]3O)C[C@]12C (some centres not stated)
-11.8% [at 11.6 µM] (inactive)
Cc1ccccc1NC(=O)Nc1ccc(CN2C(=O)N([C@@H](CC(C)C)C(=O)N[C@@H](CC(=O)O)c3ccccc3)C(=O)C2(C)C)cc1
inactive
O=C(/C=C/C=C/c1ccc2c(c1)OCO2)N1CCCCC1
inactive
C/C(=C\C1CCC(C)C2CCC3(C)OC123)C(=O)O (configuration not stated)
inactive
C=C1C(=O)O[C@@H]2C[C@]3(C)[C@@H](CCC(C)=O)[C@@H]3C[C@H]12
inactive
COC1OC(OC)C(O)(CCC2(C)C(C)CCC3(C)C2CC(O)C(O)C32CO2)C1O (configuration not stated)
inactive
CC(C)CC(=O)OC[C@@]1(O)C[C@@]23CC[C@H]4[C@@](C)(CCC[C@@]4(C)C(=O)O)[C@@H]2CC[C@@H]1C3
inactive
O=C(O)CCc1cccc(O)c1O[C@@H]1O[C@H](CO)[C@@H](O)[C@H](O)[C@H]1O
inactive
CCCC/C=C\CCCCCc1cc(=O)c2ccccc2n1C
inactive
CCC(CC)CC1(C(=O)Nc2ccccc2SC(=O)C(C)C)CCCCC1
inactive
C/C(=C\CC/C(C)=C/CC[C@]1(C)CCc2cc(O)cc(C)c2O1)CC/C=C(\C)C(=O)O
inactive
C=CC1(C)CC2CCC3C(C)(C(=O)O)CCCC3(C)C2=CC1=O (configuration not stated)
inactive
CC(C)c1ccc2c(c1)CCC1[C@](C)(C(=O)O)CCC[C@]21C (some centres not stated)
inactive
C[C@]1(OC(=O)/C=C\c2ccc(O)cc2)C[C@@H](O)[C@]2(O)C=CO[C@@H](O[C@@H]3O[C@H](CO)[C@@H](O)[C@H](O)[C@H]3O)C12 (some centres not stated)
inactive
CC(CCc1ccc(O)cc1)O[C@@H]1O[C@H](CO[C@@H]2OC(CO)[C@H](O)[C@H]2O)[C@@H](O)[C@H](O)[C@H]1O (some centres not stated)
inactive
CC(C)(OC1OC(CO)C(O)C(O)C1O)C1CCC(O)(CO)C2CC(=O)C(C)(O)C2C1 (configuration not stated)
inactive
CC(=O)N[C@H](Cc1c[nH]c2ccccc12)C(=O)OCc1cc(C(F)(F)F)cc(C(F)(F)F)c1
inactive
Cc1ccccc1-n1nc(-c2c(-c3ccc(F)cc3)nn3c2NC[C@@H](CO)C3)ccc1=O
inactive
CC(=O)OC1CC2(C)C(CCC(C)C23Cc2c(O)cc4c(c2O3)CNC4=O)C(C)(C)C1O (configuration not stated)
inactive
COc1cc(C)c(C(=O)OC2C(C)OC(OC3CCC(C)C4C3C=C(C)C3/C(C)=C\CC/C(C)=C/C5(C)C=C(C(=O)O)C(C)CC56OC(=O)/C(=C(\O)C34C)C6=O)C(O)C2O)c(OC)c1 (configuration not stated)
17.6% [at 11.6 µM] (inactive)
O=C(/C=C/c1ccc(O)cc1)O[C@@H]1C[C@@](O)(C(=O)O)C[C@@H](O)[C@@H]1O
inactive
C[C@@]12CC3(S(=O)(=O)O)OC(O1)[C@]1(COC(=O)c4ccccc4)[C@H]3C[C@]21O[C@@H]1O[C@H](CO)[C@@H](O)[C@H](O)[C@H]1O
inactive
C[C@@H]1O[C@@H](O[C@@H]2\C=C/C=C\C=C/C=C\C[C@H](C)OC(=O)/C=C\[C@H]3O[C@@H]3C[C@H](O)C[C@]3(O)C[C@@H](O)[C@@H](C(=O)O)[C@H](C2)O3)[C@H](O)[C@H](N)[C@@H]1O
inactive
C=C1CC[C@@H]2[C@](C)(CO)[C@H](O[C@@H]3O[C@H](CO)[C@@H](O)[C@H](O)[C@H]3O)CC[C@@]2(C)[C@@H]1C/C=C1/C(=O)OC[C@H]1O
inactive
C=C1CC/C=C(/C(=O)O)CCC2C1CC2(C)C (configuration not stated)
inactive
CSCC1OC(n2cnc3c(=O)[nH]cnc32)C(O)C1O (configuration not stated)
inactive
COc1cc(/C=C/C(=O)OCC2OC(OC3(CO)OC(CO)C(O)C3O)C(O)C(O)C2O)ccc1O (configuration not stated)
inactive
